- Tested on: human melanoma cells (SkMel28)
- assay.explanation: Clonogenicity assays (two- and three-dimensional colony formation), human melanoma cells
- Format: cell-based
- condition.parameters: human (metastatic) melanoma cells
measured.attribute: clonogenicity

NC(=O)NCc1ccc(CNC(=O)[C@@H](CCCN=C(N)N)NC(=O)C(c2ccccc2)c2ccccc2)cc1 : not affected
N=C(N)NCCC[C@H](NC(=O)CC1(CC(=O)N2CCN(C3c4ccccc4NC(=O)c4ccccc43)CC2)CCCC1)C(=O)NCCn1c(=O)n(-c2ccccc2)n(-c2ccccc2)c1=O (stereo partly shown) : not affected
